Molecular target: UniProt P31424
Sequence (P31424 whole entry): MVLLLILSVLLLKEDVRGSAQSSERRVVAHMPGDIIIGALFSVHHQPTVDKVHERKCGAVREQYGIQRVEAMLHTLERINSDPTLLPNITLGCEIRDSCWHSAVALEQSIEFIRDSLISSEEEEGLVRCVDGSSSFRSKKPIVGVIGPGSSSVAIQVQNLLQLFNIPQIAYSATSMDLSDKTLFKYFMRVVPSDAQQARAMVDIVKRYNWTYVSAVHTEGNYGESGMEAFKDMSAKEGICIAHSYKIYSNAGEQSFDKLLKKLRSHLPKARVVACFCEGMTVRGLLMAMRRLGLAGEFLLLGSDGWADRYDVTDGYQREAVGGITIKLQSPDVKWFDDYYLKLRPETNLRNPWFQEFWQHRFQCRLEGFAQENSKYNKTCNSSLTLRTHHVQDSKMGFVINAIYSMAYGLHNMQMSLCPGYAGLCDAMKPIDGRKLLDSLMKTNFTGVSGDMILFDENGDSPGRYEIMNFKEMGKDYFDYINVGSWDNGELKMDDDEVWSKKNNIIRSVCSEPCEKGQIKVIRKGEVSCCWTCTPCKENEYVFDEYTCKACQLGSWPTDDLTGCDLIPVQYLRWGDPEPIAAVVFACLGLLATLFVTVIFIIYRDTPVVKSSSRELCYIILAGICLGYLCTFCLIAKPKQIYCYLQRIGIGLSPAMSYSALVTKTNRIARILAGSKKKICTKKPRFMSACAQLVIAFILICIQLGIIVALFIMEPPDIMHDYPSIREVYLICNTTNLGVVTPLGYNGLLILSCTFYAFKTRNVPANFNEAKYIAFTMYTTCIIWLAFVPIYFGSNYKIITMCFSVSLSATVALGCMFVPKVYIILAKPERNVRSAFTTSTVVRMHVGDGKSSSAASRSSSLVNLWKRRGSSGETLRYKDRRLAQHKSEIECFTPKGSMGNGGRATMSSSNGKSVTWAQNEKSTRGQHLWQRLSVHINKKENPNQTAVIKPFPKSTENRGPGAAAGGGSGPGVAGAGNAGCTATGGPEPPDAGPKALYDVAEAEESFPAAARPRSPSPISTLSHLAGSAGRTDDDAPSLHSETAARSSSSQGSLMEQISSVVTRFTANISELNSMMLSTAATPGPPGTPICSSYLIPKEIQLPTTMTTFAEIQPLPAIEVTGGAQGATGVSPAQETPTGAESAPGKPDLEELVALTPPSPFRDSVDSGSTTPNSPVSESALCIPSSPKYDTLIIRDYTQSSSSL
measure.name: Ki (µM)
Express the result in µM but write the number alone.

> print(dat)
               structure.smiles.string  assay.value
1      N#Cc1cc(F)cc(C#Cc2cccc(CO)n2)c1       0.0075
2        N#Cc1cccc(C#Cc2cccc(C#N)n2)c1       0.0082
3         N#Cc1cccc(C#Cc2cccc(CO)n2)c1        0.037
4  CC(=O)c1cccc(C#Cc2cc(F)cc(C#N)c2)n1        0.064
5       Cc1cccc(C#Cc2cc(F)cc(C#N)c2)n1      0.00067

GET /value?item= "COc1cc(C#N)cc(C#Cc2cccc(C)n2)c1" &field=Ki returns 0.00129

GET /value?item= "COc1cccc(C#Cc2cncc(C#N)c2)n1" &field=Ki returns 0.055

GET /value?item= "CC(=O)c1cccc(C#Cc2cccc(C#N)c2)n1" &field=Ki returns 0.114

src = ChEMBL document CHEMBL2086345
